Target: Recombinant human renin (Homo sapiens, UniProt P00797)
Sequence (P00797 67-406): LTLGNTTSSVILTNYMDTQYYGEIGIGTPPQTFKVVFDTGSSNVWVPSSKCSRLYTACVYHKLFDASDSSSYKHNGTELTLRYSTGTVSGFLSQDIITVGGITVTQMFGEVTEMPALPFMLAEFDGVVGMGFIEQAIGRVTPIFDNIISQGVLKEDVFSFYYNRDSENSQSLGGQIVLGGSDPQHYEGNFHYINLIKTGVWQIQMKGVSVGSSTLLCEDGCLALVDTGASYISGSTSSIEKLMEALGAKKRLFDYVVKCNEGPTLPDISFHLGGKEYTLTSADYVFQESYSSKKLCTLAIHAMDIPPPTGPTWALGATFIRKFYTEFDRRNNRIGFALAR
Test: Inhibitory activity against human renin (fluorogenic peptide substrate)
Type: biochemical
Settings: 50% inhibitory concentration (IC50) against human renin, 37° C. for 1 hour
I'd be grateful if you could share measured IC50 for these entries.
Answers are plain numbers, in pM.

In [3]: df
Out[3]:
                                   compound                                       tgt  metric  result_value
0  COC(=O)NCCCn1cc([C@@H](C)N(C(=O)[C@H]2CNC[C@@H](C)O2)C2CC2)nc1-c1ccccc1 [Example 202]  Recombinant human renin (Homo sapiens, UniProt P00797)    IC50           200
1  COCCCCc1cc([C@@H](C)N(C(=O)[C@H]2CNCCO2)C2CC2)nc2c1CCCC2  Recombinant human renin (Homo sapiens, UniProt P00797)    IC50           800
2  COCCCCn1cc([C@@H](C)N(C(=O)[C@H]2CNCCO2)C2CC2)c2nccc(COC)c21  Recombinant human renin (Homo sapiens, UniProt P00797)    IC50          1800
3  COC[C@H]1CO[C@@H](C(=O)N(C2CC2)[C@H](C)c2cn(CCCNC(=O)OC)c(C3CCCCC3)n2)CN1  Recombinant human renin (Homo sapiens, UniProt P00797)    IC50           500
4  CCc1nc([C@@H](C)N(C(=O)[C@H]2CNCCO2)C2CC2)cc2c1c(F)cn2CCCOC  Recombinant human renin (Homo sapiens, UniProt P00797)    IC50           800

Batch lookup, IC50 per entry.
1. COC(=O)NCCCc1cc([C@@H](C)N(C(=O)[C@H]2CNCCO2)C2CC2)cc(N(C)S(C)(=O)=O)n1
2. CCOc1ncc(C(C)N(C(=O)[C@H]2CNC[C@@H](COC)O2)C2CC2)nc1CCCNC(=O)OC (stereo partly shown)

Key:
5000
5100
